Experiment notes: yeast display, Sf9 membrane polyspecificity reagent, FACS + sequencing; frameworks hold sequencing errors
Readout: polyreactivity (PSR sort gate)

- QVQLVESGGGLVQAGGSLRLSCAASGSTFRFYAMGWYRQAPGKERELVAAISSGGSTYYADSVKGRFTISRDNAKNTVYLQMNSLKPEDTAVYYCNARLYYSTFRYYYWGQGTQVTVSS: high polyreactivity
- QVQLVESGGGLVHAGGSLRLSCAASGRTLGGYAMGWYRQAPGKERELVAAISWNGGSTYYADSVKVRFTISRDNAKNTVYFQMNCLKPEDSAVYYCARVYSGPKAGAYDYWGQGTQVTVSS: high polyreactivity
- QVQLVESGGGLVQAGGSLRLSSASSGRTFYKYAMGWYRQAPGKERELVAAISRRGGSTYYADSVKGRFTISRDNAKNTVYLQMNSLKPEDSAVYYCAAGGSVAFYYWGQGTQVTVSS: high polyreactivity
